Quick list: inhibition at 1 h, 10 µM per entry.
measuredTarget: ABCB1 (Homo sapiens, UniProt P08183)
Sequence (P08183 whole entry): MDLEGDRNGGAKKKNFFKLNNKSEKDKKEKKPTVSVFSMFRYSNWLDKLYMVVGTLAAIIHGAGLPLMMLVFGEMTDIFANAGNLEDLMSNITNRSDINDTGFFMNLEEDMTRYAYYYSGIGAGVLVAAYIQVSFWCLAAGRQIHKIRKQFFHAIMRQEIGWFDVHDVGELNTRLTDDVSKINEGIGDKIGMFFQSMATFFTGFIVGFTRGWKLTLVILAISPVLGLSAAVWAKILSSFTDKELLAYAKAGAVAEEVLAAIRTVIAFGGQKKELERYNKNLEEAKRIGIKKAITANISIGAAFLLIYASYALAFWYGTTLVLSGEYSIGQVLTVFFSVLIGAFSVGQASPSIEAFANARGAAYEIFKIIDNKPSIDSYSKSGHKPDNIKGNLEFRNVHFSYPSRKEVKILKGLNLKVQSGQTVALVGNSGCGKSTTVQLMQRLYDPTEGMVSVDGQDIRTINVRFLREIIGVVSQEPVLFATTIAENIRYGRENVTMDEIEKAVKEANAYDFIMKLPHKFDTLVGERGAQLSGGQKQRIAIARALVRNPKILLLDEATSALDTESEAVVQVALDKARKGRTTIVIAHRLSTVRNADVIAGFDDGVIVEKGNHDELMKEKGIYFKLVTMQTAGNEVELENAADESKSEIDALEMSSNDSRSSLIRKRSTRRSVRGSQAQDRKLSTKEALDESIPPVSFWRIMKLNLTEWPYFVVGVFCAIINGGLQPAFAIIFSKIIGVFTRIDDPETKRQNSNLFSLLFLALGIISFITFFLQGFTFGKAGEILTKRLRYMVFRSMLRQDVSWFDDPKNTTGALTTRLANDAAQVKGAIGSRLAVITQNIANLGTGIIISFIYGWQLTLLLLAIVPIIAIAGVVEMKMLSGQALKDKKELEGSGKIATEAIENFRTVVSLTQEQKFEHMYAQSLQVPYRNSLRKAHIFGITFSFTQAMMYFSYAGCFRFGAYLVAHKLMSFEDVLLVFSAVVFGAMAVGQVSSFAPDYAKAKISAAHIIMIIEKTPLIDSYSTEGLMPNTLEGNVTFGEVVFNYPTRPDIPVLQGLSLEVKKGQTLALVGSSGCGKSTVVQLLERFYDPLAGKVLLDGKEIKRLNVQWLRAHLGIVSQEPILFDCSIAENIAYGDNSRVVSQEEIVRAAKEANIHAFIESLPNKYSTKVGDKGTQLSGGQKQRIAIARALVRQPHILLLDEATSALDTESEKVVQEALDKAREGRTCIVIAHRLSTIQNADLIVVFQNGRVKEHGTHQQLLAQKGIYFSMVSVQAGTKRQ
protocolDescription: Inhibition of ABCB1 in human A2780/ADR cells assessed as calcein-AM accumulation at 10 uM preincubated for 30 mins followed by calcein-AM addition measured over 60 mins at 60 secs time interval by fluorescence assay relative to cyclosporine A
Assay type: cell-based
statedConditions: A2780/ADR cells, probe calcein-AM

smilesCode	measuredTarget	metricName	reading
COc1ccc(Nc2nc(-c3ccc[nH]3)nc3ccccc23)cc1	ABCB1 (Homo sapiens, UniProt P08183)	inhibition at 1 h, 10 µM	> 25%
CC(=O)Nc1cccc(Nc2nc(-c3cccs3)nc3ccccc23)c1	ABCB1 (Homo sapiens, UniProt P08183)	inhibition at 1 h, 10 µM	> 25%
O=[N+]([O-])c1cccc(Nc2nc(-c3cccs3)nc3ccccc23)c1	ABCB1 (Homo sapiens, UniProt P08183)	inhibition at 1 h, 10 µM	< 25%
Fc1cccc(Nc2nc(-c3cccs3)nc3ccccc23)c1	ABCB1 (Homo sapiens, UniProt P08183)	inhibition at 1 h, 10 µM	< 25%

Task: Fill blank: measured inhibition at 1 h, 10 µM of the compound `COc1ccc(Nc2nc(-c3ccc[nH]3)nc3ccccc23)cc1OC` is ____.
Result: > 25%

Task: What do you have for `O=[N+]([O-])c1ccc(Nc2nc(-c3cccs3)nc3ccccc23)cc1` ?
Result: < 25%

Task: What do you have for `O=[N+]([O-])c1ccc(Oc2nc(-c3ccccc3)nc3ccccc23)cc1` ?
Result: < 25%

---

Test system: MDCK-II
protocolDescription: Cytotoxicity against MDCK2 cells harboring GFP-fused human ABCG2 at 10^-8M to 10^-5.25M after 72 hrs by MTT assay
Assay type: ADME, cell-based, Canis lupus familiaris
statedConditions: dog

smilesCode	Activity
N#Cc1cccc(Nc2nc(-c3ccc[nH]3)nc3ccccc23)c1	Non-Toxic
O=C(Nc1nc(-c2ccccc2)nc2ccccc12)c1cccc([N+](=O)[O-])c1	Toxic
N#Cc1cccc(Nc2nc(-c3cccs3)nc3ccccc23)c1	Non-Toxic
O=C(Nc1nc(-c2ccccc2)nc2ccccc12)c1ccc([N+](=O)[O-])cc1	Toxic

---

measuredTarget: Broad substrate specificity ATP-binding cassette transporter ABCG2 (Homo sapiens, UniProt Q9UNQ0)
Sequence (Q9UNQ0 whole entry, the tested form may be a part): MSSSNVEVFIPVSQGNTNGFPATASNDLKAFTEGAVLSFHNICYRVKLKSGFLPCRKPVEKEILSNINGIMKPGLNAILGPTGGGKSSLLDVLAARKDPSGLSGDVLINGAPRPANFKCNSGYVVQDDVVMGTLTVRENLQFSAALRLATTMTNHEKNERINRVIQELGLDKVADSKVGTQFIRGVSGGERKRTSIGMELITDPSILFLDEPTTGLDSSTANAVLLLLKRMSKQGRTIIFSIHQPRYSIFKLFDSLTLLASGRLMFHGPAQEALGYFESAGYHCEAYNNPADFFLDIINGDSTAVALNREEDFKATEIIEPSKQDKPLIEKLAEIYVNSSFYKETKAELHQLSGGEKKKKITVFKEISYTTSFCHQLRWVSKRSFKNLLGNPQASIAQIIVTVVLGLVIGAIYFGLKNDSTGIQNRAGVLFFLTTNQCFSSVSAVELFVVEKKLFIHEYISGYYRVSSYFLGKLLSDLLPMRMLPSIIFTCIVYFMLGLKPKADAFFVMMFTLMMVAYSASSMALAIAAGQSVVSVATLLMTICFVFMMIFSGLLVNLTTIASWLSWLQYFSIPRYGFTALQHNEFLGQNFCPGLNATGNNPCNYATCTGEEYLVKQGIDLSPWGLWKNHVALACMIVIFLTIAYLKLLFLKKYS
protocolDescription: Inhibition of GFP-fused human ABCG2 expressed in MDCK2 cells assessed as Hoechst 33342 accumulation preincubated for 30 mins followed by Hoechst 33342 addition by fluorescence assay relative to Ko143
Format: cell-based
metricName: inhibition (INH) (%)

Previously resolved entries follow.
smilesCode	metricName	displayUnit	reading
N#Cc1cccc(Nc2nc(-c3ccc[nH]3)nc3ccccc23)c1	inhibition (INH)	%	104
O=C(Nc1nc(-c2ccccc2)nc2ccccc12)c1cccc([N+](=O)[O-])c1	inhibition (INH)	%	70
CSc1cccc(Nc2ncnc3ccccc23)c1	inhibition (INH)	%	60
Oc1ccc(Nc2ncnc3ccccc23)cc1	inhibition (INH)	%	55
N#Cc1cccc(Nc2nc(-c3cccs3)nc3ccccc23)c1	inhibition (INH)	%	92

[1] O=C(Nc1nc(-c2ccccc2)nc2ccccc12)c1ccc([N+](=O)[O-])cc1
[2] COc1ccc(Nc2nc(-c3cccs3)nc3ccccc23)cc1OC
Task: Please choose the item with the lower inhibition (INH) value from this pair: 1 and 2 API: response body contains the label of the selected item.
Result: 1
(1: 61%, 2: 102%)
